Numbers sourced from patent US20040166544A1.

# system: T1, biotinylated c-Met-Fc (R&D Systems, #358-MT-100/CF, 5.1 biotin per c-Met molecule) (human, UniProt P08581 25-932, biotinylated, 5.1 biotin per c-Met molecule (Pierce #21335))
# T1 construct: extracellular domain; Captured on a streptavidin (SA) chip for the BIAcore study of the IgGs; Fc part of the bought chimera not given
# T1 sequence (P08581 25-932): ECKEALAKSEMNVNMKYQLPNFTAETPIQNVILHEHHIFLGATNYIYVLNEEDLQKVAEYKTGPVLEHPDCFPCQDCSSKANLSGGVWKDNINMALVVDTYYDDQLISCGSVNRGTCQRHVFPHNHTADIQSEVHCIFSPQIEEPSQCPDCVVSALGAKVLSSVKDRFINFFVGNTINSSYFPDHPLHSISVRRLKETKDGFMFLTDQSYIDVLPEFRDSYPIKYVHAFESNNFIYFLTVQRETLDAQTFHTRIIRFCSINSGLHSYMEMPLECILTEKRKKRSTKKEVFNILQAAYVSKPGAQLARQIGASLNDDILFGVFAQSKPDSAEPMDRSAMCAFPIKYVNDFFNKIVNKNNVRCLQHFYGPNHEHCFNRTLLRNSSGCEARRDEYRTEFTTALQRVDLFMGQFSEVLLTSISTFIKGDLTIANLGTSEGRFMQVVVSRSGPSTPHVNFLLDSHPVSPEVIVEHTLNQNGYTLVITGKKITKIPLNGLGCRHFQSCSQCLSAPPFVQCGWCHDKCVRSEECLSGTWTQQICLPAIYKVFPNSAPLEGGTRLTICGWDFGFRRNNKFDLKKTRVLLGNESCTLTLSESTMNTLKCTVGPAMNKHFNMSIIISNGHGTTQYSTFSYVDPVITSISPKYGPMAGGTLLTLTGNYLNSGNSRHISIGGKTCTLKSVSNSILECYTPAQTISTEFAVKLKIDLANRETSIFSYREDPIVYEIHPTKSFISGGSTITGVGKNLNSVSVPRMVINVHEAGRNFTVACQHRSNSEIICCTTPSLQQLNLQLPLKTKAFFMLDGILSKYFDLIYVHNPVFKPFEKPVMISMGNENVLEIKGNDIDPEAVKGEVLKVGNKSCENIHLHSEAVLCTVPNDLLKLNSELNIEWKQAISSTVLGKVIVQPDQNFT
# method-summary: SPR (BIAcore), biotinylated c-Met-Fc captured on streptavidin chip, IgG as analyte, bivalent model
measurement-kind: kon (M⁻¹ s⁻¹)
Answer with a number only, understood to be in M⁻¹ s⁻¹.

Quick one: kon for c-Met IgG antibody 12136 (antibody, V domains shown, IgG of scFv PGIA-4-A8; also called 12136 IgG; IgG of scFv PGIA-04-A8 (PGIA-4-A8)) VH: QVQLQESGPGLVKPSETLSLTCNVSGGSIRNYFWSWIRQPPGQGLEYIGYIYYSGTTDYNPSLKGRVTISLDTSKTQFSLKLNSVTAADTAFYYCVRGPNKYAFDPWGQGTLVTVSS VL: SYELTQPPSVSVSPGQTASITCSGDKLGDKFASWYQQKAGQSPVLVIYRDTKRPSGIPERFSGSNSGNTATLTISGTQAMDEADYYCQAWDSSTAVFGTGTKVTVLG ? 294000

Also c-Met IgG antibody 12123 (antibody, V domains shown, IgG of scFv PGIA-3-B2; The VL reverse cloning primer RH62 codes ...TVLG whereas the scFv entry ends ...TVLS; also called 12123 IgG; IgG of scFv PGIA-03-B2 (PGIA-3-B2)) VH: QVQLQESGPGLVKPSATLSLTCAVSGGSISSNHWWSWVRQSPGKGLEWIGEIYTYGGANYNPSLKSRVDISMDKSKNQFSLHLSSVTAADTAVYYCGRHLTGYDCFDIWGQGTLVTVSS VL: QAVLTQPSSVSGAPGQRVTISCTGSSSNIGAGYDVHWYQQLPGTAPKLLIYGNSNRPSGVPDRFSGSKSGTSASLAITGLQAEDEADYYCQSYDSSLSGVFGTGTQLTVLS , if possible. 338000

Also c-Met IgG antibody 11994 (antibody, V domains shown, IgG of scFv PGIA-3-A9; also called 11994 IgG; 11994-50) VH: QVQLQESGPGLVKPSGTLSLTCAVSGGSISTSDWWSWVRRPPGKGLEWIGEIYHSGSTNYHPSLKSRVTISLDKSKNQFSLKLSSVTAADTAVYYCAREGGHSGSYPLDYWGKGTLVTVSS VL: NFMLTQPHSVSESPGKTVTISCTRSSGSIASNYVQWYQQRPGSSPTTVIYEDNQRPSGVPDRFSGSIDSSSNSASLTISGLKTEDEADYYCQSYDSSNQGVVFGGGTKLTVLG , if possible. 90600
